# study.system: HLA-A*02:01 (Homo sapiens, UniProt P04439, D140Y/D185E/D98H/E176V/E277Q/G131W/G231S/I119V/I121R/I166T/I218V/L300P/L318F/N151K/N90K/P208A/P217A/Q86G/Q94H/R138H/R169H/T345S)
# assay.explanation: HLA-peptide competition binding assay, A*02:01
# condition.description: post-translationally modified insulin peptide; competition binding assay; a dash indicates IC50 >40,000 nM; read-out: A*02:01 binding (IC50 nM) Modified
Where a SMILES comes first, the peptide text is derived from it. [ ]: non-standard residue; d: D form. Cit = NC(=O)NCCC[C@H](N)C(=O)O
readout: IC50

{"columns": ["molecule", "value.reported"],
 "data": [
  ["CC[C@H](C)[C@H](NC(=O)CNC(=O)[C@H](CCCNC(N)=O)NC(=O)[C@H](CCCCN)NC(=O)[C@H](CCC(N)=O)NC(=O)[C@@H](N)CC(C)C)C(=O)N[C@H](C(=O)N[C@@H](CCC(=O)O)C(=O)N[C@@H](CCC(N)=O)C(=O)N[C@@H](CS)C(=O)O)C(C)C (H-LQK[Cit]GIVEQC-OH; N-terminus and C-terminus assumed)", "> 40000 nM"],
  ["C[C@H](NC(=O)[C@H](CCC(=O)O)NC(=O)[C@H](CCCNC(N)=O)NC(=O)[C@H](CCCNC(N)=O)NC(=O)[C@@H](NC(=O)[C@H](CCCCN)NC(=O)[C@@H]1CCCN1C(=O)[C@@H](NC(=O)[C@@H](N)Cc1ccc(O)cc1)[C@@H](C)O)[C@@H](C)O)C(=O)N[C@@H](CCC(=O)O)C(=O)O (H-YTPKT[Cit][Cit]EAE-OH; N-terminus and C-terminus assumed)", "> 40000 nM"]
]}

Record C[C@H](NC(=O)[C@H](CCC(=O)O)NC(=O)[C@H](CCCNC(N)=O)NC(=O)[C@H](CCCNC(N)=O)NC(=O)[C@@H](NC(=O)[C@H](CCCCN)NC(=O)[C@@H]1CCCN1C(=O)[C@@H](N)[C@@H](C)O)[C@@H](C)O)C(=O)N[C@@H](CCC(=O)O)C(=O)N[C@@H](CC(=O)O)C(=O)O [TPKTUUEAED] (H-TPKT[Cit][Cit]EAED-OH; N-terminus and C-terminus assumed) . Reported IC50: > 40000 nM

====

# study.system: HLA-A*02:01 (Homo sapiens, UniProt P04439, D140Y/D185E/D98H/E176V/E277Q/G131W/G231S/I119V/I121R/I166T/I218V/L300P/L318F/N151K/N90K/P208A/P217A/Q86G/Q94H/R138H/R169H/T345S)
# assay.explanation: HLA-peptide competition binding assay, A*02:01
# condition.description: post-translationally modified insulin peptide; competition binding assay; a dash indicates IC50 >40,000 nM; read-out: A*02:01 binding (IC50 nM) Modified
Where a SMILES comes first, the peptide text is derived from it. [ ]: non-standard residue; d: D form. Cit = NC(=O)NCCC[C@H](N)C(=O)O
readout: IC50

See these solved cases before continuing.
{"columns": ["compound", "readout", "value.reported"],
 "data": [
  ["CC(C)C[C@H](NC(=O)[C@H](CC(=O)O)NC(=O)[C@H](CCC(=O)O)NC(=O)[C@H](C)NC(=O)[C@H](CCC(=O)O)NC(=O)[C@H](CCCNC(N)=O)NC(=O)[C@@H](N)CCCNC(N)=O)C(=O)N[C@@H](CCC(N)=O)C(=O)N[C@H](C(=O)NCC(=O)O)C(C)C (H-[Cit][Cit]EAEDLQVG-OH; N-terminus and C-terminus assumed)", "IC50", "> 40000 nM"],
  ["CC(C)C[C@H](NC(=O)[C@H](CC(=O)O)NC(=O)[C@H](CCC(=O)O)NC(=O)[C@H](C)NC(=O)[C@H](CCC(=O)O)NC(=O)[C@@H](N)CCCNC(N)=O)C(=O)N[C@@H](CCC(N)=O)C(=O)N[C@H](C(=O)NCC(=O)O)C(C)C (H-[Cit]EAEDLQVG-OH; N-terminus and C-terminus assumed)", "IC50", "> 40000 nM"]
]}

Lab note: measured IC50 of CC[C@H](C)[C@H](NC(=O)CNC(=O)[C@H](CCCNC(N)=O)NC(=O)[C@H](CCCCN)NC(=O)[C@H](CCC(N)=O)NC(=O)[C@H](CC(C)C)NC(=O)[C@H](CO)NC(=O)CNC(=O)[C@@H](N)CCC(=O)O)C(=O)N[C@H](C(=O)O)C(C)C (H-EGSLQK[Cit]GIV-OH; N-terminus and C-terminus assumed) was > 40000 nM

====

# study.system: HLA-A*02:01 (Homo sapiens, UniProt P04439, D140Y/D185E/D98H/E176V/E277Q/G131W/G231S/I119V/I121R/I166T/I218V/L300P/L318F/N151K/N90K/P208A/P217A/Q86G/Q94H/R138H/R169H/T345S)
# assay.explanation: HLA-peptide competition binding assay, A*02:01
# condition.description: read-out: A*02:01 binding (IC50 nM) Modified
Where a SMILES comes first, the peptide text is derived from it. [ ]: non-standard residue; d: D form. Cit = NC(=O)NCCC[C@H](N)C(=O)O
Catalogue of compounds with associated IC50
Value expressed in nM; do not type the unit.

{"columns": ["compound", "IC50 / nM"],
 "data": [
  ["C[C@H](NC(=O)[C@H](CCC(=O)O)NC(=O)[C@H](CCCNC(N)=O)NC(=O)[C@H](CCCNC(N)=O)NC(=O)[C@@H](NC(=O)[C@H](CCCCN)NC(=O)[C@@H]1CCCN1C(=O)[C@@H](NC(=O)[C@@H](N)Cc1ccc(O)cc1)[C@@H](C)O)[C@@H](C)O)C(=O)O (H-YTPKT[Cit][Cit]EA-OH)", 34700]
]}

Lookup result for C[C@@H](O)[C@H](NC(=O)[C@H](Cc1ccc(O)cc1)NC(=O)[C@H](Cc1ccccc1)NC(=O)[C@H](Cc1ccccc1)NC(=O)CNC(=O)[C@H](CCCNC(N)=O)NC(=O)[C@@H](N)CCC(=O)O)C(=O)N1CCC[C@H]1C(=O)N[C@@H](CCCCN)C(=O)O (H-E[Cit]GFFYTPK-OH) ; measured IC50: 38100

Record CC(C)C[C@H](NC(=O)[C@@H](N)Cc1ccc(O)cc1)C(=O)N[C@H](C(=O)N[C@@H](CS)C(=O)NCC(=O)N[C@@H](CCC(=O)O)C(=O)N[C@@H](CCCNC(N)=O)C(=O)NCC(=O)N[C@@H](Cc1ccccc1)C(=O)O)C(C)C (H-YLVCGE[Cit]GF-OH) , field IC50: 11400

====

# study.system: HLA-A*03:01 (Homo sapiens)
# assay.explanation: HLA-peptide competition binding assay, A*03:01
Where no end group is shown, it is not given here.
readout: pIC50
Please treat pIC50 as minus the base-10 logarithm of the molar concentration.

Note to self: pIC50 recorded for "ALYLVCGER" was 5.55

====

# study.system: HLA-A*11:01 (Homo sapiens, UniProt P04439, A114D/D185E/E176A/F33Y/L180Q/S129P/T187R)
# assay.explanation: HLA-peptide competition binding assay, A*11:01
# condition.description: read-out: IC50 nM, target assay A*11:01
Where no end group is shown, it is not given here.
readout: IC50 (nM)

{"columns": ["input.sequence", "study.system", "IC50 / nM"],
 "data": [
  ["ALYLVCGER", "HLA-A*11:01 (Homo sapiens, UniProt P04439, A114D/D185E/E176A/F33Y/L180Q/S129P/T187R)", 28300]
]}

A = LVCGERGFFY
B = RFKMFPEVK
input: Between the two listed entries A and B , which has its IC50 at the higher number? // output: label of the selected item
output: A
(A: 27200 nM, B: 18300 nM)

====

# study.system: HLA-A*02:01 (Homo sapiens, UniProt P04439, D140Y/D185E/D98H/E176V/E277Q/G131W/G231S/I119V/I121R/I166T/I218V/L300P/L318F/N151K/N90K/P208A/P217A/Q86G/Q94H/R138H/R169H/T345S)
# assay.explanation: HLA-peptide competition binding assay, A*02:01
# condition.description: post-translationally modified insulin peptide; competition binding assay; a dash indicates IC50 >40,000 nM; read-out: A*02:01 binding (IC50 nM) Modified
Where a SMILES comes first, the peptide text is derived from it. [ ]: non-standard residue; d: D form. Cya = N[C@@H](CS(=O)(=O)O)C(=O)O; Cit = NC(=O)NCCC[C@H](N)C(=O)O
Recorded IC50 by entry

{"columns": ["molecule", "value.reported"],
 "data": [
  ["CC(C)C[C@H](NC(=O)[C@H](Cc1c[nH]cn1)NC(=O)[C@H](CCC(N)=O)NC(=O)[C@H](CC(N)=O)NC(=O)[C@@H](N)C(C)C)C(=O)N[C@@H](CS(=O)(=O)O)C(=O)NCC(=O)N[C@@H](CO)C(=O)N[C@@H](Cc1c[nH]cn1)C(=O)O [VNQHLBGSH] (H-VNQHL[Cya]GSH-OH; N-terminus and C-terminus assumed)", "> 40000 nM"]
]}

Given item CC(C)C[C@H](N)C(=O)N[C@H](C(=O)N[C@@H](CS)C(=O)NCC(=O)N[C@@H](CCC(=O)O)C(=O)N[C@@H](CCCNC(N)=O)C(=O)NCC(=O)N[C@@H](Cc1ccccc1)C(=O)N[C@@H](Cc1ccccc1)C(=O)O)C(C)C (H-LVCGE[Cit]GFF-OH; N-terminus and C-terminus assumed) , the value recorded as its IC50 is > 40000 nM

Just so you know, measured IC50 for CC(C)C[C@H](NC(=O)[C@H](Cc1c[nH]cn1)NC(=O)[C@H](CCC(N)=O)NC(=O)[C@H](CC(N)=O)NC(=O)[C@@H](NC(=O)[C@@H](N)Cc1ccccc1)C(C)C)C(=O)N[C@@H](CS(=O)(=O)O)C(=O)NCC(=O)N[C@@H](CO)C(=O)O [FVNQHLBGS] (H-FVNQHL[Cya]GS-OH; N-terminus and C-terminus assumed) came out at > 40000 nM
